- Test system: Plasmodium berghei
- experiment-description: Screen against P. berghei liver stage (PbLuc), transformed with Luciferase, at 10uM
- Assay type: functional, HepG2
- cond: tested at 10 uM
Hit rate of the full screen: of about 69,000 compounds, about 8,600 (12%) showed an effect of 50% or more. The entries come from a sample that favours strong results as a whole.

{"compound": "COc1cc(C2SCC(=O)Nc3[nH]ncc32)cc2c1OCO2 (centres undefined)", "INHIBITION (%)": 30.2}
{"compound": "CC(C)Cc1noc(CN(C)c2cc(N(C)C)ncn2)n1", "INHIBITION (%)": -8.75}
{"compound": "COc1cccc(C2c3c(n[nH]c3C)N=C3COC(=O)C32)c1O (centres undefined)", "INHIBITION (%)": 48}
{"compound": "COc1cccc(C2c3c(n[nH]c3C)N=C3COC(=O)C32)c1OC (centres undefined)", "INHIBITION (%)": -7.77}
{"compound": "CCOc1c(Br)cc(C2c3c(n[nH]c3C)N=C3COC(=O)C32)cc1OC (centres undefined)", "INHIBITION (%)": 72.4}
{"compound": "COc1cc(C2c3c(n[nH]c3C)N=C3COC(=O)C32)cc(Br)c1O (centres undefined)", "INHIBITION (%)": 62.3}
{"compound": "COCC1c2nnn(C)c2CCN1C(=O)Cc1ccccn1 (centres undefined)", "INHIBITION (%)": -21.3}
{"compound": "O=C(O)C1(Cc2cccc(-c3ccc(F)cc3)c2)CCOCC1", "INHIBITION (%)": -22.6}
{"compound": "COCC1c2nnn(C)c2CCN1C(=O)c1ccc(OC)c(F)c1 (centres undefined)", "INHIBITION (%)": 44.8}
